Data origin: ChEMBL document CHEMBL4359926

tested.system: PPARgamma2 (peroxisome proliferator-activated receptor gamma) (Homo sapiens)
Sequence (P37231 whole entry): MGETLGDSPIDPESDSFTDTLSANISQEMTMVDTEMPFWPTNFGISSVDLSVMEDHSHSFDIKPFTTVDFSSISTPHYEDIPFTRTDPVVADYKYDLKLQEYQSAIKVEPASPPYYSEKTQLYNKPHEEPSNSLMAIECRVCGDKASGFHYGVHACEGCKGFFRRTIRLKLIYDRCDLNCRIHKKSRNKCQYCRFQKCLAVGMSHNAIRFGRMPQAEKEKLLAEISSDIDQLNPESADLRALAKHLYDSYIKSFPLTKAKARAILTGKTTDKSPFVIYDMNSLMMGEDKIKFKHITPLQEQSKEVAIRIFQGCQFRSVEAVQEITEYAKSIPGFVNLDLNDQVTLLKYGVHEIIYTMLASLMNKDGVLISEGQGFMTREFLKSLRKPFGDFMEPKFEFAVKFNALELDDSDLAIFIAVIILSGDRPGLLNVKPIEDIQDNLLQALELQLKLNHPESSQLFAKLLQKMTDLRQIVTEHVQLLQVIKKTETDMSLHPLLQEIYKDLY
test: Transactivation activity at human PPARgamma2 cotransfected with PPRE X3-TK-luc in human HEK293 cells incubated for 24 hrs by luciferase reporter gene assay relative to rosiglitazone
Type: cell-based
Categorize each record by its Emax at 24 h using bottom (below 20%), middle (20% to below 40%), top (40% or more)

>>> df
                          compound_structure                             tested_system  label_class
 0  COc1ccc(OC)c(CNC(=O)c2ccc3c(c2)c(C)c(C)n3Cc2cccc(C(F)(F)F)c2)c1  PPARgamma2 (peroxisome proliferator-activated receptor gamma) (Homo sapiens)       middle
 1  Cc1c(C)n(Cc2ccc(-c3ccccc3C(=O)O)cc2)c2ccc(C(=O)O)cc12  PPARgamma2 (peroxisome proliferator-activated receptor gamma) (Homo sapiens)       bottom
 2  Cc1c(C)n(Cc2ccc(-c3ccccc3C(=O)O)cc2)c2ccc(C(=O)NCC3CCNCC3)cc12  PPARgamma2 (peroxisome proliferator-activated receptor gamma) (Homo sapiens)       bottom
 3  Cc1c(C)n(Cc2ccc(-c3ccccc3C(=O)O)cc2)c2ccc(C(=O)NC3CCNCC3)cc12  PPARgamma2 (peroxisome proliferator-activated receptor gamma) (Homo sapiens)       bottom
 4  Cc1c(C)n(Cc2ccc(-c3ccccc3C(=O)O)cc2)c2ccc(C(=O)NCc3cccc(OCC(=O)O)c3)cc12  PPARgamma2 (peroxisome proliferator-activated receptor gamma) (Homo sapiens)          top
 5  Cc1c(C)n(Cc2cccc(C(F)(F)F)c2)c2ccc(C(=O)NCc3ccccn3)cc12  PPARgamma2 (peroxisome proliferator-activated receptor gamma) (Homo sapiens)          top
 6  COc1cc(CNC(=O)c2ccc3c(c2)c(C)c(C)n3Cc2ccc(-c3ccccc3C(=O)O)cc2)ccc1O  PPARgamma2 (peroxisome proliferator-activated receptor gamma) (Homo sapiens)       bottom
 7  Cc1c(C)n(Cc2ccc(-c3ccccc3C(=O)O)cc2)c2ccc(C(=O)NCc3cccnc3)cc12  PPARgamma2 (peroxisome proliferator-activated receptor gamma) (Homo sapiens)          top
 8  Cc1c(C)n(Cc2cccc(C(F)(F)F)c2)c2ccc(C(=O)NCc3ccc4c(c3)OCO4)cc12  PPARgamma2 (peroxisome proliferator-activated receptor gamma) (Homo sapiens)       middle
 9  Cc1c(C)n(Cc2ccc(-c3ccccc3C(=O)O)cc2)c2ccc(C(=O)NCc3ccccn3)cc12  PPARgamma2 (peroxisome proliferator-activated receptor gamma) (Homo sapiens)       bottom
10  Cc1c(C)n(Cc2cccc(C(F)(F)F)c2)c2ccc(C(=O)N[C@@H](Cc3ccc(O)cc3)C(=O)O)cc12  PPARgamma2 (peroxisome proliferator-activated receptor gamma) (Homo sapiens)          top
11  Cc1c(C)n(Cc2ccc(-c3ccccc3C(=O)O)cc2)c2ccc(C(=O)NCc3ccc(S(N)(=O)=O)cc3)cc12  PPARgamma2 (peroxisome proliferator-activated receptor gamma) (Homo sapiens)       bottom
12  Cc1c(C)n(Cc2ccc(-c3ccccc3C(=O)O)cc2)c2ccc(C(=O)NCCc3ccc(O)cc3)cc12  PPARgamma2 (peroxisome proliferator-activated receptor gamma) (Homo sapiens)       middle
13  Cc1c(C)n(Cc2ccc(-c3ccccc3C(=O)O)cc2)c2ccc(C(=O)NCc3ccc4c(c3)OCO4)cc12  PPARgamma2 (peroxisome proliferator-activated receptor gamma) (Homo sapiens)       middle
14  COc1cc(CNC(=O)c2ccc3c(c2)c(C)c(C)n3Cc2cccc(C(F)(F)F)c2)ccc1O  PPARgamma2 (peroxisome proliferator-activated receptor gamma) (Homo sapiens)          top
